Test system: PPARg:RXRa (NR concentration 180 nM, RXRa partner concentration 90 nM)
measurement.notes: PBM binding z-score (relative to random genomic background probes); higher = stronger binding; sequences stand for … in GC…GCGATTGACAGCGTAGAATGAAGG

residue.string	PBM binding z-score
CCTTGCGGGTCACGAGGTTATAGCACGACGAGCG	7.48
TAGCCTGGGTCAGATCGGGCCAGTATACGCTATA	0.579
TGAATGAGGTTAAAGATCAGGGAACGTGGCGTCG	5.54
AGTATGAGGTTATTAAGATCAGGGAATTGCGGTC	0.776
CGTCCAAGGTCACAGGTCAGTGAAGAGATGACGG	7.73
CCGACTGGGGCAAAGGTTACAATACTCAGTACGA	12.1
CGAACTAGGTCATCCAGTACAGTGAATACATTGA	7.93
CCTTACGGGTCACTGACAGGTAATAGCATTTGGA	4.51
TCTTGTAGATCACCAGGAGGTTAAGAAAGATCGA	-0.000569
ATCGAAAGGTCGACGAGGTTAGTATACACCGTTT	2.6
CGAACTAGGTCAAGGACACTGAATCTCCGCACGC	7.39
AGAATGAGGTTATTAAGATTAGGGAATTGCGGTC	1.17
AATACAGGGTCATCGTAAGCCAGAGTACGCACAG	6.63

----------
Tested on: PPARg:RXRa 30nM:10nM, anti-RXR (NR concentration 30 nM, RXRa partner concentration 10 nM)
measurement.notes: PBM binding z-score (relative to random genomic background probes); higher = stronger binding; sequences stand for … in GC…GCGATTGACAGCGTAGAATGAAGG
readout.kind: PBM binding z-score

residue.string	assayed.system	endpoint.result
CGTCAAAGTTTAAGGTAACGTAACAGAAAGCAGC	PPARg:RXRa 30nM:10nM, anti-RXR (NR concentration 30 nM, RXRa partner concentration 10 nM)	0.465
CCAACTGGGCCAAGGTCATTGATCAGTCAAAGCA	PPARg:RXRa 30nM:10nM, anti-RXR (NR concentration 30 nM, RXRa partner concentration 10 nM)	1.82
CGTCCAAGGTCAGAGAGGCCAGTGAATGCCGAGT	PPARg:RXRa 30nM:10nM, anti-RXR (NR concentration 30 nM, RXRa partner concentration 10 nM)	-0.0839
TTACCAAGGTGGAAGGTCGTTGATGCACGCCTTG	PPARg:RXRa 30nM:10nM, anti-RXR (NR concentration 30 nM, RXRa partner concentration 10 nM)	1.94
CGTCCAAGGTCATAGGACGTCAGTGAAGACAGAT	PPARg:RXRa 30nM:10nM, anti-RXR (NR concentration 30 nM, RXRa partner concentration 10 nM)	1.6
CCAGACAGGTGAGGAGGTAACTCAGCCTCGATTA	PPARg:RXRa 30nM:10nM, anti-RXR (NR concentration 30 nM, RXRa partner concentration 10 nM)	-0.128
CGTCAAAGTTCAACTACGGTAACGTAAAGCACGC	PPARg:RXRa 30nM:10nM, anti-RXR (NR concentration 30 nM, RXRa partner concentration 10 nM)	2.32
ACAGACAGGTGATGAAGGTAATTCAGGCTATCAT	PPARg:RXRa 30nM:10nM, anti-RXR (NR concentration 30 nM, RXRa partner concentration 10 nM)	0.0788
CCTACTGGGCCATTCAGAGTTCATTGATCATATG	PPARg:RXRa 30nM:10nM, anti-RXR (NR concentration 30 nM, RXRa partner concentration 10 nM)	0.0346
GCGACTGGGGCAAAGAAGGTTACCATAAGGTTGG	PPARg:RXRa 30nM:10nM, anti-RXR (NR concentration 30 nM, RXRa partner concentration 10 nM)	0.513
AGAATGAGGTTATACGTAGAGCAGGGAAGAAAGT	PPARg:RXRa 30nM:10nM, anti-RXR (NR concentration 30 nM, RXRa partner concentration 10 nM)	0.738
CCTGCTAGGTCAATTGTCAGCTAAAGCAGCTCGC	PPARg:RXRa 30nM:10nM, anti-RXR (NR concentration 30 nM, RXRa partner concentration 10 nM)	-0.128

----------
Readings of PBM binding z-score for the listed sequences
System: PPARg:RXRa (NR concentration 180 nM, RXRa partner concentration 90 nM)
measurement.notes: PBM binding z-score (relative to random genomic background probes); higher = stronger binding; sequences stand for … in GC…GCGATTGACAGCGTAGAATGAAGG

residue.string	PBM binding z-score
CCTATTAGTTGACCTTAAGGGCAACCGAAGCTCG	1.81
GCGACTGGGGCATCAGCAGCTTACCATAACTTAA	0.465
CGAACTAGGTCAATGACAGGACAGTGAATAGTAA	7.1
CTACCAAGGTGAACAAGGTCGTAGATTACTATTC	1.19
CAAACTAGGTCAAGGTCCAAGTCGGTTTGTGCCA	8.9
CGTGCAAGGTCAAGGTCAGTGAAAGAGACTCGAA	6.66
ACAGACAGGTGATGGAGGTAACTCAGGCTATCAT	0.789
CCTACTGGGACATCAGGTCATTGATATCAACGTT	2.46
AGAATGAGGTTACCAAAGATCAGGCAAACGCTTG	2.77
TTACCAAGGTGACGGTCGTTGATCCCTCTGTAGA	0.654
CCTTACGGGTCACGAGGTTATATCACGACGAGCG	7.17
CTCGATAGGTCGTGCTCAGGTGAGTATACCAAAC	0.11
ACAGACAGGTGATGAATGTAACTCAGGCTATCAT	0.735
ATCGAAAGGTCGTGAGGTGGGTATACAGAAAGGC	3.35
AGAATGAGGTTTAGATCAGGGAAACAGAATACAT	0.649
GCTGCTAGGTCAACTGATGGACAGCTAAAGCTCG	2.8
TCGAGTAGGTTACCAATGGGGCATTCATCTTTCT	0.329
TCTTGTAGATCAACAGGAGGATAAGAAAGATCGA	0.379
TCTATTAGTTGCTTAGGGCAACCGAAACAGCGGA	-0.0516
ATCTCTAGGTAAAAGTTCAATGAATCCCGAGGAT	8.83
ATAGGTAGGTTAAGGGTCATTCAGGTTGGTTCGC	9.73
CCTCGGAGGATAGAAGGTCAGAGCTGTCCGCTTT	-0.0434
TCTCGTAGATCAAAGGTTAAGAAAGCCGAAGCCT	4.19
TCAGAAAGGTGAAGGTAACTCAGGTACGCAGTCG	1.75
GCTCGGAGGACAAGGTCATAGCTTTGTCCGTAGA	2.43
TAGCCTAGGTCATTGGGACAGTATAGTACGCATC	3.81
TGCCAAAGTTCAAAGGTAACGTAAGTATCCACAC	7.61
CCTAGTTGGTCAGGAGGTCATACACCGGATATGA	2.72
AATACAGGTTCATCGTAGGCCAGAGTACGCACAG	1.67
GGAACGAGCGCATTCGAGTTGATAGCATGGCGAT	0.379
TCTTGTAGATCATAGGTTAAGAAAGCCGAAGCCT	4.38
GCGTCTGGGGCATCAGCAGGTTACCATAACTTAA	0.169
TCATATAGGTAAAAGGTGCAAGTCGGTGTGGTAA	5.37
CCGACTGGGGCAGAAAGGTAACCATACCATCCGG	1.05
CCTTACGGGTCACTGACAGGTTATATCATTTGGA	4.29
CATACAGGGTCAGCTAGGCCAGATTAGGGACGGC	3.11
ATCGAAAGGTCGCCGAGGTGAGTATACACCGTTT	3.84
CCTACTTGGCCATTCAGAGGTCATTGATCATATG	0.976
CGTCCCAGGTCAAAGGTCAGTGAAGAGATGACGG	10.8
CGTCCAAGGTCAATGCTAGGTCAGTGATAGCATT	4.12
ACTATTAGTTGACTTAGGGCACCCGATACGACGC	0.894

----------
Readings of PBM binding z-score for the listed sequences
Tested on: THRa:RXRa (NR concentration 90 nM, RXRa partner concentration 90 nM)
measurement.notes: PBM binding z-score (relative to random genomic background probes); higher = stronger binding; sequences stand for … in GC…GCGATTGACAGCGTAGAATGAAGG

residue.string	PBM binding z-score
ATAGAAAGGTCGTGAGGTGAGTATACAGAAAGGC	3.48
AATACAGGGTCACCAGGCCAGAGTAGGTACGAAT	3.85
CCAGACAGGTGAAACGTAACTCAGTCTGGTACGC	-0.118
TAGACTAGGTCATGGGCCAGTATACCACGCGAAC	2.73
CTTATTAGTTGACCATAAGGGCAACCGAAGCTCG	2.04
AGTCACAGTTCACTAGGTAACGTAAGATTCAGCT	1.34
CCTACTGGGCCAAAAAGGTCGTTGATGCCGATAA	1.26
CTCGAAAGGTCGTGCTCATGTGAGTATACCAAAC	2.45
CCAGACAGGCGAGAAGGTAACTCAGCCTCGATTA	-0.499
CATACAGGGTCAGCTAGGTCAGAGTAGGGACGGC	4.07
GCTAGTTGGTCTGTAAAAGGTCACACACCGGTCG	3.52
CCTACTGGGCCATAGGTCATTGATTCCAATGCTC	1.61
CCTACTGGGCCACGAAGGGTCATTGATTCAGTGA	3
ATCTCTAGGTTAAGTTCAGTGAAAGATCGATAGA	1.99
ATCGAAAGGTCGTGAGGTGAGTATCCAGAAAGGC	3.28
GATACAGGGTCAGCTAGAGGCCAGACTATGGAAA	3.1
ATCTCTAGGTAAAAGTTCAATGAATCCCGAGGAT	1.71
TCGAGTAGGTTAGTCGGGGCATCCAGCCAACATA	1.05
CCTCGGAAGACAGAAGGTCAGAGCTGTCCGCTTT	1.56
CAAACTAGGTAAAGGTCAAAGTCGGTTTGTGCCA	3.87
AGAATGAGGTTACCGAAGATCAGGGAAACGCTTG	3.05
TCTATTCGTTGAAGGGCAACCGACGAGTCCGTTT	0.507
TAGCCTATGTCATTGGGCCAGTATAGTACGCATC	-0.314
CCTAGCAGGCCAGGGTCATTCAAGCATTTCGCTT	2.93
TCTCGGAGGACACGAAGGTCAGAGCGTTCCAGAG	2.99
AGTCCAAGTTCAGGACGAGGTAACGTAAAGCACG	3.44
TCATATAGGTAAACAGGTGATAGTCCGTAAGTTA	0.375
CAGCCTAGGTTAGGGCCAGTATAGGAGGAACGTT	-0.0554
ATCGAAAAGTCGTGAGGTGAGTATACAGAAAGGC	1.68
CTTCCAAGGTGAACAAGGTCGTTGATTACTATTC	3.41
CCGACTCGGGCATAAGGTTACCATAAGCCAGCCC	2.09
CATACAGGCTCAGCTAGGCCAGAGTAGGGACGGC	-0.349
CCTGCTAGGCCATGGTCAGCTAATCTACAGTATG	-0.0916
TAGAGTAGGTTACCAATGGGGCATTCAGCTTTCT	0.389
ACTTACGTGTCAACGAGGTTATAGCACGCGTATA	1.99
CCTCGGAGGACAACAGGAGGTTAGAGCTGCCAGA	1.19
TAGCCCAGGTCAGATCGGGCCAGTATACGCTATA	4.22
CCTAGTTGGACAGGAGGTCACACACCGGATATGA	3.41
